Measured values drawn from patent US20240270821A1 for this set.

Form field: cAMP Rel EC50 (in the presence of 1% HSA) (one value per entry).
subject_of_test: hGLP-1R (Homo sapiens, UniProt P43220)
Sequence (P43220 24-463): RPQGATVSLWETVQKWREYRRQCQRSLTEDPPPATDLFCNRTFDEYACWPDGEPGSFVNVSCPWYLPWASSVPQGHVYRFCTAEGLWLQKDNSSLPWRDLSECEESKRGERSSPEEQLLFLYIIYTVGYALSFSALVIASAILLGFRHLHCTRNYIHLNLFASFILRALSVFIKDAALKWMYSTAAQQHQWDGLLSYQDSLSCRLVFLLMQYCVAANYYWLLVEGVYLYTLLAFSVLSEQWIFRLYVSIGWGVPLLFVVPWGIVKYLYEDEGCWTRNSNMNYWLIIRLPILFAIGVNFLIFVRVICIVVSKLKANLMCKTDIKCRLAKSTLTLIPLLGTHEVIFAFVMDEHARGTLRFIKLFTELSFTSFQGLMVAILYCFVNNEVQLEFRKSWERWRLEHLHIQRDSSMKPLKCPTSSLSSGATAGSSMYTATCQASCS
protocol_description: cell-based or functional assay
experimental_endpoint: cAMP Rel EC50 (in the presence of 1% HSA) (nM)

>  <binder>
YXQGTXTSDXXIXLDXKAQXEFIEXLIEGGPSSGEPPPSGE (non-natural residues; Lys acylated C18 diacid; C-terminal amide; synthetic construct; SITE 2: note = 2-Aminoisobutyric Acid; SITE 6: note = alpha-methyl-2-fluoro-L-phenylalanine; SITE 10: note = 3-(4-Pyridyl)-L-alanine; SITE 11: note = alpha-methyl-L-serine; SITE 13: note = alpha-methyl-leucine; SITE 16: note = L-ornithine; SITE 17: note = Lysine is chemically mo) [Example 1177]

>  <value>
43.6

$$$$
>  <binder>
YXQGTFTSDXSXXLDKKAQXAFIEYLLEAGPSSXAPPPSGT (Aib, 4Pal, Orn, αMeL, D-Ala; acylated Lys; C-terminal amide; synthetic construct; SITE 2: note = 2-Aminoisobutyric Acid; SITE 10: note = 3-(4-Pyridyl)-L-alanine; SITE 12: note = L-ornithine; SITE 13: note = alpha-methyl-leucine; SITE 17: note = Lysine is chemically modified through conjugation of the epsilon-amino group of the Lysine side chain with (2-[2-(2-) [Example 275]

>  <value>
692

$$$$
>  <binder>
YXQGTFTSDFSXXLDKKAQXAFIEWLLEGGXSSGAPPPSGE (Aib, Orn, αMeL, 4Pal; AEEA-γGlu-C18 diacid on Lys; amide; synthetic construct; SITE 2: note = 2-Aminoisobutyric Acid; SITE 12: note = L-ornithine; SITE 13: note = alpha-methyl-leucine; SITE 17: note = Lysine is chemically modified through conjugation of the epsilon-amino group of the Lysine side chain with (2-[2-(2-Amino-ethoxy)-ethoxy]-acetyl)-(gamma-Glu)) [Example 267]

>  <value>
1020

$$$$
>  <binder>
YXQGTFTSDFSXXLDKKAQXAFIEWLLEGGPSSGAPPPEGX (non-natural residues; acylated Lys; C-terminal amide; synthetic construct; SITE 2: note = 2-Aminoisobutyric Acid; SITE 12: note = L-ornithine; SITE 13: note = alpha-methyl-leucine; SITE 17: note = Lysine is chemically modified through conjugation of the epsilon-amino group of the Lysine side chain with (2-[2-(2-Amino-ethoxy)-ethoxy]-acetyl)-(gamma-Glu)) [Example 262]

>  <value>
400

$$$$
>  <binder>
YXQGTFTSDFSXXLDKKAQXAFIEWLLEXGHSSGAPPPSGE (Aib, Orn, αMeL; K acylated with (AEEA)2-γGlu-C18 diacid; C-amide; synthetic construct; SITE 2: note = 2-Aminoisobutyric Acid; SITE 12: note = L-ornithine; SITE 13: note = alpha-methyl-leucine; SITE 17: note = Lysine is chemically modified through conjugation of the epsilon-amino group of the Lysine side chain with (2-[2-(2-Amino-ethoxy)-ethoxy]-acetyl)2-(gamma-Glu)) [Example 266]

>  <value>
583

$$$$
>  <binder>
YXQGTFTSDFSXXLDKKAQXAFIEWLLEAGSSSGAPPPSGT (C-terminal amide; lysine acylated with AEEA-γ-Glu-C18 diacid; synthetic construct; SITE 2: note = 2-Aminoisobutyric Acid; SITE 12: note = L-ornithine; SITE 13: note = alpha-methyl-leucine; SITE 17: note = Lysine is chemically modified through conjugation of the epsilon-amino group of the Lysine side chain with (2-[2-(2-Amino-ethoxy)-ethoxy]-acetyl)-(gamma-Glu)) [Example 263]

>  <value>
257

$$$$
